# assayed target: T1, Gadd45β/MKK7 complex (biotin-hGadd45β with coated GST-MKK7, ELISA format) (human) (UniProt O75293)
# T1 sequence (biotinylated (sites not stated), looked up) 1: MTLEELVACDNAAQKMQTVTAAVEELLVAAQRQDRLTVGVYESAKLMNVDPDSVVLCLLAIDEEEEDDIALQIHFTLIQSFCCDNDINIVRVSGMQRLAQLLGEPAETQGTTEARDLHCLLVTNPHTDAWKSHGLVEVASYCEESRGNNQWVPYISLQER
# T1 sequence (biotinylated (sites not stated), looked up) 2: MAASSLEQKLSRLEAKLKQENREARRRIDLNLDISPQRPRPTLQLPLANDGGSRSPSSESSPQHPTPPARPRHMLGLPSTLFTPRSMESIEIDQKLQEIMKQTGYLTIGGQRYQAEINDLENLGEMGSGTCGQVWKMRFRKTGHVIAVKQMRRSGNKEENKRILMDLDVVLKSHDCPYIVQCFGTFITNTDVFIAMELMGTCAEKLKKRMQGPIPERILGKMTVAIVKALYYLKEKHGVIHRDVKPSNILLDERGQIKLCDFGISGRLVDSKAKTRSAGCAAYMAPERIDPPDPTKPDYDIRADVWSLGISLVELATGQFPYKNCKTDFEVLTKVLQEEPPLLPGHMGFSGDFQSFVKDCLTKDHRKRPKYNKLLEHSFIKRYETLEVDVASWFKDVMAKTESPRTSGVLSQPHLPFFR
# procedure text: competition ELISA; coated GST-MKK7 42 nM, biotin-hGadd45β 21 nM
Square brackets hold non-standard residues; d marks the D form. * marks the point of attachment. Cbz = O=C(OCc1ccccc1)*
property name: IC50

> print(dat)
                                     binder  property.name  reading
1  Cbz-[dY][dD][dH][dQ]-NH2 [Z-Tyr-Asp-His-Gln-NH2]           IC50  > 10 nM
2  Cbz-[dY][dY][dD][dH][dQ]-NH2 [Z-Tyr-Tyr-Asp-His Gln-NH2]           IC50  > 10 nM
3  Cbz-[dY][dY][dE][dR][dF]-NH2 [Z-Tyr-Tyr-Glu-Arg-Phe-NH2]           IC50   > 5 nM
